test system: TNF-α; test: TNF-alpha in LPS-induced PBMCs / CD14+ monocytes, Meso Scale assay; assay type: cell-based; conditions: 0.1 μM
Would you mind labelling by inhibition at 0.1 µM? At or over 20% is y, under is n.

Ask: Please tell me: is the molecule O=C(Cc1cccc(CN2CCOCC2)c1)NCc1ccc2c(c1)CN([C@H]1CCCC(=O)NC1=O)C2=O [Compound 14] at or over 20% in terms of inhibition at 0.1 µM?
Reply: n

Ask: Given the entry Cc1ccc(NC(=O)NCCc2cccc3c2CN([C@H]2CCCC(=O)NC2=O)C3=O)cc1Cl [Compound 23] , answer whether its inhibition at 0.1 µM meets or surpasses 20%.
Reply: y

Ask: Hi, just wondering whether Cc1ccc(NC(=O)NCc2cccc3c2CN([C@H]2CCCC(=O)NC2=O)C3=O)cc1Cl [Compound 17] shows inhibition at 0.1 µM of 20% or higher.
Reply: n

Ask: Check the entry O=C1CCC[C@H](N2Cc3cc(CNC(=O)C(F)(F)c4ccc(F)cc4)ccc3C2=O)C(=O)N1 [Compound 25] : does inhibition at 0.1 µM equal or exceed 20%?
Reply: y

Ask: Record Cc1ccc(NC(=O)NCc2cc3c(cc2F)C(=O)N([C@H]2CCCC(=O)NC2=O)C3)cc1Cl [Compound 22] ; criterion: inhibition at 0.1 µM no lower than 20%. Met?
Reply: y

Ask: inhibition at 0.1 µM >= 20% for O=C1CCCC(N2Cc3cc(CNC(=O)Nc4cccc(Cl)c4)ccc3C2=O)C(=O)N1 (centres unmarked) [Compound 3] ?
Reply: y

====

In this section, each of the molecules is paired with its reported GSPT1 protein level (% of DMSO control) at 0.1 µM.
biological target: GSPT1 (Homo sapiens); construct: Whole cell extract was prepared with RIPA buffer according to manufacturer's protocol; endogenous in cells; host or cells: Jurkat cells; experiment: Western blot analysis of GSPT1 protein levels in Jurkat cells; type: cell-based; settings: 100 nM compound, DMSO = 100.00
Sequence (P15170 whole entry): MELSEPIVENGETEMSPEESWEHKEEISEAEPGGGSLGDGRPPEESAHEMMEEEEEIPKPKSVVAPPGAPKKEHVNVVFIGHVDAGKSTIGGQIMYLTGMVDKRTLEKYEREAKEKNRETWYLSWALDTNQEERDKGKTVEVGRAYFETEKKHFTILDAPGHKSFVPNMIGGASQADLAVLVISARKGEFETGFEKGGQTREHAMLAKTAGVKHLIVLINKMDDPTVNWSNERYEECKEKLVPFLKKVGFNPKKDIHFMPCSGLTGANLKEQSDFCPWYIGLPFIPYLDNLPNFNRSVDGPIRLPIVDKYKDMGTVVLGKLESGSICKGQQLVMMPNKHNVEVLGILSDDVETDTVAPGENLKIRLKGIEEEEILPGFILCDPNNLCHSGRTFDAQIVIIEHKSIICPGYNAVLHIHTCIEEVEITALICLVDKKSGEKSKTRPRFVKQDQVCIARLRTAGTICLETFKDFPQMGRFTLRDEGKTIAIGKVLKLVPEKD
Quick note: number first, unit second.

Consider the reported GSPT1 protein level (% of DMSO control) at 0.1 µM for these molecules:
molecule	assay-result
Cc1ccc(NC(=O)NCc2ccc3c(c2)CN([C@H]2CCCC(=O)NC2=O)C3=O)cc1Cl	28.6%
Cc1ccc(CC(=O)NCc2ccc3c(c2)CN([C@H]2CCCC(=O)NC2=O)C3=O)cc1	128%
Cc1c(Cl)cccc1NC(=O)NCc1ccc2c(c1)CN([C@H]1CCCC(=O)NC1=O)C2=O	80.2%

Ask: Provide the documented GSPT1 protein level (% of DMSO control) at 0.1 µM with GSPT1 (Homo sapiens) as the system for O=C1CCCC(N2Cc3cc(CNC(=O)Nc4cccc(Cl)c4)ccc3C2=O)C(=O)N1 (stereo not drawn)
Reply: 95.5%

Ask: Write down the reported GSPT1 protein level (% of DMSO control) at 0.1 µM of O=C1CCC[C@H](N2Cc3cc(CNC(=O)Nc4ccc(F)c(Cl)c4)ccc3C2=O)C(=O)N1 , test system: GSPT1 (Homo sapiens).
Reply: 113%

Ask: Give the reported GSPT1 protein level (% of DMSO control) at 0.1 µM for Cc1ccc(NC(=O)NCCc2cccc3c2CN([C@H]2CCCC(=O)NC2=O)C3=O)cc1Cl (system: GSPT1 (Homo sapiens)).
Reply: 147%

Every entry's value here was drawn from patent US10857155B2.
